# Test system: UACC-62
# Measurement notes: NCI tumour cell line growth inhibition, 48 h
Activity calls are given as the source filed them. No stated cut-off is given here; in the data, active = GI50 up to about 1.1 µM and inactive = higher.
Give measured GI50 for each item. Keep answers brief.

IN: Please look up its GI50: `Cc1csc2nc3c(cnn3C)c(=S)n12`
OUT: > 100 µM (inactive)

IN: Try C[C@@H](Oc1ccc(Oc2cnc3ccc(Cl)cc3n2)cc1)C(=O)O [R(+)XK469] next.
OUT: 66.7 µM (inactive)

IN: Would you kindly repeat that for COc1ccc(C(C)NNC(=O)c2cc[n+]([BH2-]C#N)cc2)cc1F (stereo not given) ?
OUT: > 100 µM (inactive)

IN: Now consider S=C=NC1CCC(c2cc3ccccc3s2)(N2CCCCC2)CC1 (stereo not given) .
OUT: 1.76 µM (inactive)

IN: Then this molecule: `CN1C(=O)c2ccc3ccccc3c2C1=O`
OUT: > 100 µM (inactive)

IN: Same question for `Cc1ccc(C(=O)c2[nH]c(NCc3ccccc3)c(C(=S)Nc3ccccc3)c2N)cc1` please.
OUT: 11.8 µM (inactive)

IN: One more molecule: O=C1CC(C[C@H](O)C2CCCCC2O)CC(=O)N1Cc1ccccc1 (stereo not given in full)
OUT: > 100 µM (inactive)

IN: Same read-out for O=C(Nc1nc2ncn(CC(COc3ccccc3)OC(=O)c3ccccc3)c2c(=O)[nH]1)c1ccccc1 (stereo not given) ?
OUT: > 100 µM (inactive)

IN: Okay, and `COc1cc(OC)c2c(=O)cc(-c3ccccc3F)[nH]c2c1` ?
OUT: 52.8 µM (inactive)

IN: // same read-out, input: `O=C(CCc1cc(O)cc(O)c1)NCCc1cc(OCc2ccccc2)cc(OCc2ccccc2)c1`
OUT: 16.9 µM (inactive)

// provenance: ChEMBL document CHEMBL1201862
